# Study target: Beta-secretase 2 (Homo sapiens, UniProt Q9Y5Z0)
# Sequence (Q9Y5Z0 whole entry): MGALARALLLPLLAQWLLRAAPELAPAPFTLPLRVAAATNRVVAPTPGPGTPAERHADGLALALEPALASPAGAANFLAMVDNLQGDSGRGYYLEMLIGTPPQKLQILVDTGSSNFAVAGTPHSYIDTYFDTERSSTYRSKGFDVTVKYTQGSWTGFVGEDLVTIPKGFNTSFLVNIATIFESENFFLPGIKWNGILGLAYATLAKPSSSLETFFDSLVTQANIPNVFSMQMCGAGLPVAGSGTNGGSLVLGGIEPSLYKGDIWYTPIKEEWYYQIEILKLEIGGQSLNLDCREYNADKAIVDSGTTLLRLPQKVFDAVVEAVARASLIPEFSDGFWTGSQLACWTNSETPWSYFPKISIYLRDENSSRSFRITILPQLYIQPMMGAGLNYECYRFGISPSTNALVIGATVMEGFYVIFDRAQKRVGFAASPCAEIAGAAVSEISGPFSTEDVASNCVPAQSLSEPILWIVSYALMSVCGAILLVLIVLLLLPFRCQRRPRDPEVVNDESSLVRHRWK
Measurement type: IC50 (nM)
Provide only the numeric value, understood in nM.

Request the reported IC50 associated with C[C@H]1SC(N)=N[C@](C)(c2cc(NC(=O)c3cnc(OCF)cn3)ccc2F)[C@H]1F 7.1

----------
# Test summary: Volume of distribution at steady state in mouse at 0.5 mg/kg, iv
# Assay type: ADME, organism-based
# Measurement setup: in vivo, read-out: Vdss
Measurement type: Vd (L/kg)
Provide only the numeric value, understood in L/kg.

Request the reported Vd associated with C[C@H]1SC(N)=N[C@](C)(c2cc(NC(=O)c3cnc(OCF)cn3)ccc2F)[C@H]1F 7.5
